System: NCI-H1944
Assay: normalised cell viability (NPI; 0 = phenylarsine oxide control, 1 = DMSO control) (fraction of DMSO control); higher = more viable cells (less compound toxicity)
Conditions: glucocorticoid arm: hydrocortisone 2.75 uM pre-treated 2 days and continued; compound 1 µM; 6 days
Over roughly 1,900 compounds, “normalised cell viability (NPI; 0 = phenylarsine oxide control, 1 = DMSO control)” has its median near 1; the lowest 2% begin near 0.039. Shown is part of a subset that was picked to be rich in the lowest values.
normalised cell viability listing for selected molecules.
Could you keep your reply to the number by itself?

- Molecule: "CC(C)C[C@H](NC(=O)CNC(=O)c1cc(Cl)ccc1Cl)B1OC(=O)CC(CC(=O)O)(C(=O)O)O1 (stereo partly drawn)"
  Measured Endpoint: "normalised cell viability"
  Measured Value: 1.05

Prompt line: Quick one: normalised cell viability for CC(/C=C/c1cccc(Oc2ccc(F)cc2)c1)N(O)C(N)=O (stereo not drawn) ?
Response line: 1.01

Prompt line: Quick one: O=C(NC1CCNCC1)c1n[nH]cc1NC(=O)c1c(Cl)cccc1Cl
Response line: 0.349

Prompt line: Quick one: CCc1cccc(N(C)C(=N)Nc2cccc3ccccc23)c1
Response line: 1.01

Prompt line: Quick one: C[C@]12CC[C@H](O)CC1=CC[C@@H]1[C@@H]2CC[C@]2(C)C(c3cccnc3)=CC[C@@H]12
Response line: 1.05

Prompt line: Quick one: CC[C@@H]1SC2(CCN(C)CC2)NC1=O
Response line: 1.03

Prompt line: Quick one: CNC(=O)[C@H]1O[C@@H](n2cnc3c(N)ncnc32)[C@H](O)[C@@H]1O
Response line: 0.988

Prompt line: Quick one: O=C(N[C@@H](Cc1ccccc1)C(=O)CCl)OCc1ccccc1
Response line: 1.02

Prompt line: Quick one: O=C(O)c1cc(O)c2ccc(Cl)cc2n1
Response line: 1.01

Prompt line: Quick one: CC(C)[C@H](NC(=O)OCc1ccccc1)C(=O)N[C@H](C=O)Cc1ccccc1
Response line: 0.997

###

System: NCI-H1944;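 note: CTB read-out in 384-well plates, triplicate wells, NPI normalised per plate against 1 µM phenylarsine oxide (0) and 0.1% DMSO (1) controls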
Experiment: normalised cell viability (NPI; 0 = phenylarsine oxide control, 1 = DMSO control) (fraction of DMSO control); NCI-H1944 is a non-small cell lung cancer line; higher = more viable cells (less compound toxicity)
Conditions: glucocorticoid arm: hydrocortisone 2.75 uM pre-treated 2 days and continued; compound 1 µM; 6 days
Structures can show the parent of a compound that is named as a salt. Whole data set: some 1,900 compounds, median “normalised cell viability (NPI; 0 = phenylarsine oxide control, 1 = DMSO control)” near 1, cut for the lowest 2% near 0.039. The full list was thinned out, with the lowest values kept by preference.
normalised cell viability listing for selected compounds.
Could you keep your reply to the number by itself?

- Compound: "CC(C)C(=O)Oc1ccc(CO)cc1[C@H](CCN(C(C)C)C(C)C)c1ccccc1 [Fesoterodine Fumarate]"
  normalised cell viability: 1
- Compound: "CO[C@H]1C(=O)[C@]2(C)[C@@H](OC)C[C@H]3OC[C@@]3(OC(C)=O)[C@H]2[C@H](OC(=O)c2ccccc2)[C@]2(O)C[C@H](OC(=O)[C@H](O)[C@@H](NC(=O)OC(C)(C)C)c3ccccc3)C(C)=C1C2(C)C"
  normalised cell viability: 0.468
- Compound: "CN1CCN(C(=O)c2cc3cc(Cl)ccc3[nH]2)CC1"
  normalised cell viability: 1.01

Prompt line: Quick one: normalised cell viability for Cn1cc(C2=C(c3cn(CCCSC(=N)N)c4ccccc34)C(=O)NC2=O)c2ccccc21 [Ro 31-8220 Mesylate] ?
Response line: 0.973

Prompt line: Quick one: Cc1[nH]c(/C=C2\C(=O)Nc3ccc(S(=O)(=O)N(C)c4cccc(Cl)c4)cc32)c(C)c1C(=O)N1CCN(C)CC1
Response line: 1

Prompt line: Quick one: CN(C(Cc1ccc(OS(=O)(=O)c2cccc3cnccc23)cc1)C(=O)N1CCN(c2ccccc2)CC1)S(=O)(=O)c1cccc2cnccc12 (stereo not drawn)
Response line: 1.01

Prompt line: Quick one: Cc1ccc([N+](=O)[O-])cc1S(=O)(=O)N(C)C
Response line: 1

Prompt line: Quick one: N=C(N)NCCCCNC(=N)N [Arcaine sulfate]
Response line: 0.993

Data credit: the supplement of paper PMC8285479
